- System: dayflower, VA (Virginia (VA) dayflower, Commelina virginica)
- RUN_DESCRIPTION: Test F pre-/postemergence: dayflower, VA
- Assay type: in vivo
- RUN_CONDITIONS: Preemergence; 250 g ai/ha; scale 0 to 100
# reported Plant response rating, Dayflower, VA; entries follow
Hey, just send me the number, nothing else.

Use these answered entries as a reference point.
INSERT INTO results (compound_smiles, recorded_measurement) VALUES
  ('COc1nn(-c2cccc(F)c2)nc1Cc1ccnc(C(F)(F)F)c1', 65),
  ('CCc1nn(-c2ccc(C(F)(F)F)cc2)nc1Cc1ccnc(C(F)(F)F)c1', 60),
  ('CCc1nn(-c2ccc(F)c(F)c2)nc1Oc1ccnc(C(F)(F)F)c1', 30);

Kindly consider the entry below.
stdin: Form field: reported Plant response rating, Dayflower, VA of CCCc1nn(-c2ccc(F)c(F)c2)nc1Oc1ccnc(C(F)(F)F)c1
stdout: 90

Measured values drawn from patent US9302999B2 for this set.
